Target: PD-1/PD-L1 interaction (PD-1-Ig / PD-L1-His) (Homo sapiens (Human))
Sequence (Q9NZQ7 other isoform, or with tags, fused parts or gaps): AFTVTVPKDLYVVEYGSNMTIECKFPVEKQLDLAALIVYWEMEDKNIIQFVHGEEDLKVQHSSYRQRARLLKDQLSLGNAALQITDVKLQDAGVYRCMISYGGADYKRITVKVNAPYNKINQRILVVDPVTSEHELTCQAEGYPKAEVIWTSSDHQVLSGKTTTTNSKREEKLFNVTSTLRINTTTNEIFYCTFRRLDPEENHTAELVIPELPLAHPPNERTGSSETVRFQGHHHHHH
Test: PD-1/PD-L1 Homogenous Time-Resolved Fluorescence (HTRF) binding assay
Details: PD-1/PD-L1 HTRF binding assay; value given as range class; read-out: Range or IC50
Recorded IC50 values for a group of molecules are listed next.

Solved cases (8 shown):
INSERT INTO measurements (molecule, target_system, result) VALUES
  ('Cc1cc(CNC[C@@H](O)CC(=O)O)c(OCc2cccc(C#N)c2)cc1OCc1cccc(-c2ccc3c(c2)OCCO3)c1C', 'PD-1/PD-L1 interaction (PD-1-Ig / PD-L1-His) (Homo sapiens (Human))', '0.6 to 10 nM'),
  ('CC(=O)NCCNCc1ccc(OCc2cccc(-c3ccccc3)c2C)cc1OC[C@@H]1CCC(=O)N1', 'PD-1/PD-L1 interaction (PD-1-Ig / PD-L1-His) (Homo sapiens (Human))', '10 to 100 nM'),
  ('Cc1c(COc2cc(OCc3cccc(C#N)c3)c(CNC[C@@H](O)CC(=O)O)cc2Cl)cccc1-c1ccc2c(c1)OCCO2', 'PD-1/PD-L1 interaction (PD-1-Ig / PD-L1-His) (Homo sapiens (Human))', '0.6 to 10 nM'),
  ('CC(=O)NCCNCc1cc(C)c(OCc2cccc(-c3ccc4c(c3)OCCO4)c2C)cc1OCc1cncc(C#N)c1', 'PD-1/PD-L1 interaction (PD-1-Ig / PD-L1-His) (Homo sapiens (Human))', '0.6 to 10 nM'),
  ('Cc1c(COc2ccc(CN[C@H](CO)C(=O)O)c(OCc3cccc(C(N)=O)c3)c2)cccc1-c1ccc2c(c1)OCCO2', 'PD-1/PD-L1 interaction (PD-1-Ig / PD-L1-His) (Homo sapiens (Human))', '10 to 100 nM'),
  ('C[C@](CO)(NCc1ccc(OCc2cccc(-c3ccc4c(c3)OCCO4)c2Cl)cc1OCc1cccc(C#N)c1)C(=O)O', 'PD-1/PD-L1 interaction (PD-1-Ig / PD-L1-His) (Homo sapiens (Human))', '0.6 to 10 nM'),
  ('Cc1cc(CN[C@@H](CO)C(=O)O)c(OCc2cncc(C#N)c2)cc1OCc1cccc(-c2ccc3c(c2)OCCO3)c1C', 'PD-1/PD-L1 interaction (PD-1-Ig / PD-L1-His) (Homo sapiens (Human))', '0.6 to 10 nM'),
  ('CC(=O)NCCNCc1ccc(OCc2cccc(-c3ccccc3)c2C)cc1OCc1ccc2[nH]ncc2c1', 'PD-1/PD-L1 interaction (PD-1-Ig / PD-L1-His) (Homo sapiens (Human))', '100 to 20000 nM');

Exam item: What value of IC50 has been recorded for this entry: Cc1c(COc2ccc(CN3CCCC[C@H]3C(=O)O)c(OCc3cncc(C#N)c3)c2)cccc1-c1ccccc1
Marked response: 0.6 to 10 nM

From: patent US9850225B2
